target: human Syk (GST-Syk) (Homo sapiens, UniProt P43405); construct: A cDNA fragment encoding human Syk openreading frame was cloned; made in house; host or cells: Sf21 insect cells (baculovirus, transfer vector pAcG2T); assay: Syk tyrosine kinase inhibitory assay; format: biochemical; details: in vitro; compounds as yielded by solid phase synthesis, purity about 40 to 90%; read-out: Activity grade (IC50 class)
Observable: IC50

>>> print(df.to_string())
                                    compound            result
 0  COc1ccc(-c2cc3nccn3c(N3CCC(O)(c4ccc(Cl)cc4)CC3)n2)cc1OC [Example 9-64]  2000 to 10000 nM
 1  CCSc1nc(-c2ccc(O)c(OC)c2)cc2nccn12 [material for Example 3]          < 500 nM
 2  COc1ccc(-c2cc3nccn3c(Sc3ncccn3)n2)cc1OC [Example 13-13]          < 500 nM
 3  COc1ccc(Nc2nc(-c3ccc(OC)c(OC)c3)cc3nccn23)cc1OC [Example 11-84]          < 500 nM
 4  COc1ccc(-c2cc3nccn3c(N(C(C)=O)c3ccccc3)n2)cc1OC(C)=O [Example 10]          < 500 nM
 5  COc1ccc(Nc2nc(-c3ccc(OC)c(OC)c3)cc3nccn23)c(OC)c1 [Example 11-65]          < 500 nM
 6  COC(=O)c1cc(Br)ccc1Nc1nc(-c2ccc(OC)c(OC)c2)cc2nccn12 [Example 11-86]          < 500 nM
 7  CCSc1cc(-c2cccc([N+](=O)[O-])c2)cc2nccn12 [Example 8-6]    500 to 2000 nM
 8  COc1ccc(Nc2nc(-c3ccc(OCCN4CCOCC4)c(OC)c3)cc3nccn23)c(C(N)=O)c1 [Example 9-95]          < 500 nM
 9  CCSc1nc(-c2ccsc2)cc2nccn12 [Example 8-5]    500 to 2000 nM
10  COc1ccc(-c2cc3ncnn3c(Nc3ccc(CCC(=O)O)cc3)n2)cc1OC [Example 9-20]          < 500 nM
11  COC(=O)C1CCN(c2nc(-c3ccc(OC)c(OC)c3)cc3nccn23)CC1 [Example 9-67]  2000 to 10000 nM
12  COc1ccc(-c2cc3nccn3c(N3C(=O)c4ccccc43)n2)cc1OC [Example 9]  2000 to 10000 nM
13  COc1ccc(-c2cc3nccn3c(Nc3ccc(OC(C)C)cc3)n2)cc1OC [Example 11-98]          < 500 nM
14  COc1ccc(-c2cc3nccn3c(N3CCC(O)CC3)n2)cc1OC [Example 9-69]    500 to 2000 nM
15  COc1ccc(-c2cc3nccn3c(Nc3ccc(S(=O)(=O)N4CCCC4)cc3)n2)cc1OC [Example 11-115]          < 500 nM
16  COc1ccc(-c2cc3nccn3c(NCc3ccccc3)n2)cc1OC [Example 9-10]    500 to 2000 nM
17  COc1ccc(Nc2nc(-c3ccc(OC)c(OC)c3)cc3nccn23)cc1NC(=O)CN1CCOCC1 [Example 11-83]    500 to 2000 nM

----------
A collection of molecules and their measured pIC50
Target: human Syk (GST-Syk) (Homo sapiens, UniProt P43405)
Construct: A cDNA fragment encoding human Syk openreading frame was cloned; made in house; host or cells: Sf21 insect cells (baculovirus, transfer vector pAcG2T)
Experiment: Syk tyrosine kinase inhibitory assay
Assay type: biochemical
Settings: in vitro; compounds as yielded by solid phase synthesis, purity about 40 to 90%; read-out: Activity grade (IC50 class)
Source text: [Syk Tyrosine Kinase Inhibitory Assay] (1) Preparation of Syk Protein A cDNA fragment encoding human Syk openreading frame was cloned from total RNA of human Burkitt's lymphoma B cell lines, Raji (American Type Culture Collection), with the use of RT-PCR method. The cDNA fragment was inserted into pAcG2T (Pharmingen, San Diego, Calif.) to construct a baculovirus transfer vector. […]
pIC50: −log10 of the molar value.
Observable: pIC50

>>> df
                                   molecule  observable        result
0  COc1ccc(-c2cc3nccn3c(Sc3c(C)cccc3C)n2)cc1OC [Example 13-9]       pIC50  5.00 to 5.70
1  COc1ccc(-c2cc3nccn3c(Sc3ccccc3CO)n2)cc1OC [Example 13-7]       pIC50        > 6.30
2  COc1ccc(-c2cc3nccn3c(NC(=O)c3ccccc3)n2)cc1OC [Example 16]       pIC50        > 6.30
3  CCSc1nc(-c2ccc(OCCCN(C)CCO)c(OC)c2)cc2nccn12 [Example 5-3]       pIC50        > 6.30
4  COc1ccc(-c2cc3nccn3c(Nc3cccc([N+](=O)[O-])c3)n2)cc1OC [Example 11-70]       pIC50        > 6.30
5  COc1ccc(-c2cc3nccn3c(NCC(O)CO)n2)cc1OC (stereo not drawn) [Example 9-4]       pIC50  5.70 to 6.30
6  COc1ccc(-c2cc3nccn3c(Nc3ccc(F)c(F)c3)n2)cc1OC [Example 11-57]       pIC50        > 6.30
7  COc1ccc(-c2cc3nccn3c(Sc3ccc(CCC(=O)O)cc3OC)n2)cc1OC [Example 9-94]       pIC50        > 6.30
8  COc1ccc(-c2cc3nccn3c(Nc3ccc4[nH]nnc4c3)n2)cc1OC [Example 11-12]       pIC50        > 6.30

----------
A collection of molecules and their measured pIC50
biological target: human Syk (GST-Syk) (Homo sapiens); construct: A cDNA fragment encoding human Syk openreading frame was cloned; made in house; host or cells: Sf21 insect cells (baculovirus, transfer vector pAcG2T); experiment: Syk tyrosine kinase inhibitory assay; assay type: biochemical; details: in vitro; compounds as yielded by solid phase synthesis, purity about 40 to 90%; read-out: Activity grade (IC50 class)
pIC50: −log10 of the molar value.
Observable: pIC50

>>> df
                                   molecule                         test_target  observable        result
0  COc1ccc(-c2cc3nccn3c(Nc3cccc(N(C)C)c3)n2)cc1OC  human Syk (GST-Syk) (Homo sapiens)       pIC50        > 6.30
1  COc1ccc(-c2cc3nccn3c(Nc3ccc(Cl)cc3)n2)cc1OC  human Syk (GST-Syk) (Homo sapiens)       pIC50        > 6.30
2  COc1ccc(-c2cc3nccn3c(Nc3ccc(S(=O)(=O)NC(=N)N)cc3)n2)cc1OC  human Syk (GST-Syk) (Homo sapiens)       pIC50        > 6.30
3  COc1ccc(-c2cc3nccn3c(N3CCC(C(N)=O)CC3)n2)cc1OC  human Syk (GST-Syk) (Homo sapiens)       pIC50        > 6.30
4  COc1ccc(-c2cc3nccn3c(Sc3cccc(C(=O)O)c3)n2)cc1OC  human Syk (GST-Syk) (Homo sapiens)       pIC50  5.70 to 6.30
5  COc1ccc(-c2cc3nccn3c(SCC(C)C(=O)O)n2)cc1OC (stereo not drawn)  human Syk (GST-Syk) (Homo sapiens)       pIC50  5.70 to 6.30
6  COC(=O)CSc1nc(-c2ccc(OC)c(OC)c2)cc2nccn12  human Syk (GST-Syk) (Homo sapiens)       pIC50        > 6.30
7  COc1ccc(Nc2nc(-c3ccc(OC)c(OC)c3)cc3nccn23)c(C)c1  human Syk (GST-Syk) (Homo sapiens)       pIC50        > 6.30
8  CCSc1nc(-c2ccc(OCC3CCCCO3)c(OC)c2)cc2nccn12 (stereo not drawn)  human Syk (GST-Syk) (Homo sapiens)       pIC50        > 6.30

----------
target: human Syk (GST-Syk) (Homo sapiens, UniProt P43405); construct: A cDNA fragment encoding human Syk openreading frame was cloned; made in house; host or cells: Sf21 insect cells (baculovirus, transfer vector pAcG2T); assay: Syk tyrosine kinase inhibitory assay; format: biochemical; settings: in vitro; compounds as yielded by solid phase synthesis, purity about 40 to 90%; read-out: Activity grade (IC50 class)
A collection of compounds and their measured IC50
Observable: IC50

>>> print(df.to_string())
                                    compound                               test_target  observable            result
 0  CCSc1nc(-c2ccc(OC)c(OC)c2)cc2nc(C(=O)OC)cn12  human Syk (GST-Syk) (Homo sapiens, UniProt P43405)        IC50    500 to 2000 nM
 1   CCN(CC)c1nc(-c2ccc(OC)c(OC)c2)cc2nccn12  human Syk (GST-Syk) (Homo sapiens, UniProt P43405)        IC50    500 to 2000 nM
 2    COc1ccc(-c2cc3nccn3c(NCCN(C)C)n2)cc1OC  human Syk (GST-Syk) (Homo sapiens, UniProt P43405)        IC50  2000 to 10000 nM
 3    COc1ccc(-c2cc3nccn3c(N3CCCCC3)n2)cc1OC  human Syk (GST-Syk) (Homo sapiens, UniProt P43405)        IC50    500 to 2000 nM
 4  COc1ccc(-c2cc3nccn3c(Nc3ccc(N)cc3)n2)cc1OC  human Syk (GST-Syk) (Homo sapiens, UniProt P43405)        IC50          < 500 nM
 5  COc1ccc(-c2cc3nccn3c(Sc3ccccc3OC)n2)cc1OC  human Syk (GST-Syk) (Homo sapiens, UniProt P43405)        IC50          < 500 nM
 6  COc1ccc(-c2cc3nccn3c(NC3CCC(C(=O)O)CC3)n2)cc1OC (stereo not drawn)  human Syk (GST-Syk) (Homo sapiens, UniProt P43405)        IC50    500 to 2000 nM
 7  COc1ccc(-c2cc3nccn3c(Nc3ccc(S(=O)(=O)N4CCOCC4)cc3)n2)cc1OC  human Syk (GST-Syk) (Homo sapiens, UniProt P43405)        IC50          < 500 nM
 8  CCSc1nc(-c2ccc(OCCCN3CCCCC3)c(OC)c2)cc2nccn12  human Syk (GST-Syk) (Homo sapiens, UniProt P43405)        IC50          < 500 nM
 9  COc1cccc(Nc2nc(-c3ccc(OC)c(OC)c3)cc3nccn23)c1  human Syk (GST-Syk) (Homo sapiens, UniProt P43405)        IC50          < 500 nM
10           CCSc1nc(-c2cccc(OC)c2)cc2nccn12  human Syk (GST-Syk) (Homo sapiens, UniProt P43405)        IC50    500 to 2000 nM
11  COc1ccc(Nc2nc(-c3ccc(OC)c(OC)c3)cc3nccn23)cc1O  human Syk (GST-Syk) (Homo sapiens, UniProt P43405)        IC50          < 500 nM
12  COc1ccc(-c2cc3nccn3c(Sc3cccc(N)c3)n2)cc1OC  human Syk (GST-Syk) (Homo sapiens, UniProt P43405)        IC50          < 500 nM
13  COc1ccc(Nc2nc(-c3ccc(OC)c(OC)c3)cc3nccn23)cc1F  human Syk (GST-Syk) (Homo sapiens, UniProt P43405)        IC50          < 500 nM
14  COc1cc(-c2cc3nccn3c(Sc3ccc(CCC(=O)O)cc3)n2)ccc1OCCN1CCOCC1  human Syk (GST-Syk) (Homo sapiens, UniProt P43405)        IC50          < 500 nM
15  CCSc1nc(-c2ccc(OC)c(OCCCN3CCN(C)CC3)c2)cc2nccn12  human Syk (GST-Syk) (Homo sapiens, UniProt P43405)        IC50    500 to 2000 nM
16  COc1ccc(-c2cc3nccn3c(Nc3ccccc3C(=O)O)n2)cc1OC  human Syk (GST-Syk) (Homo sapiens, UniProt P43405)        IC50          < 500 nM
17  COc1ccc(-c2cc3nccn3c(N3CCN(c4ccc(Cl)cc4)CC3)n2)cc1OC  human Syk (GST-Syk) (Homo sapiens, UniProt P43405)        IC50  2000 to 10000 nM
